Test system: SUP-B15
Assay: Cell proliferation assay (WST-1 and/or Alamar Blue), SUP-B15
Format: cell-based
Conditions: SUP-B15, human B-cell derived acute lymphoblastic leukemia; 72 hours incubation
Recorded Metric: IC50 (µM)
The response must be a number in µM with no trailing unit.

Request - read-out IC50 | tested on SUP-B15 | compound CC(C)C(=O)Nc1cccc(C(=O)Nc2nnc(CCc3ccccc3)s2)c1
4.82

====

System: 786-0
Test: Cell proliferation assay (WST-1 and/or Alamar Blue), 786-0
Assay type: cell-based
Settings: Homo sapiens; 786-0, renal cell adenocarcinoma; 72 hours incubation
Recorded Metric: IC50 (µM)
Please give a number only; it is taken to be in µM.

// IC50 lookup, key: CC(C)C(=O)Nc1cccc(C(=O)Nc2nnc(CCc3ccccc3)s2)c1
4.34

Where these numbers come from: patent US20070213378A1
